experimentalTarget: Urokinase-type plasminogen activator (Homo sapiens)
pIC50: −log10 of the molar value.
Please mark Yes if the recorded pIC50 is equal to or greater than 5, and No if it falls below.

Solved entries (count: 3):
>  <smilesRepresentation>
COC(=O)c1nn(C(=O)c2ccccc2)c2ccccc12

>  <category>
Yes

$$$$
>  <smilesRepresentation>
CC(C)OC(=O)c1nn(C(=O)c2ccccc2)c2ccccc12

>  <category>
Yes

$$$$
>  <smilesRepresentation>
COC(=O)c1nn(C(=O)c2cccc(C)c2)c2ccccc12

>  <category>
Yes

$$$$

// switching to the query molecule
*Q* Reported pIC50 at or above 5? CCCC(=O)n1nc(C(=O)OCC)c2ccccc21
*A* No

----------
experimentalTarget: Neutrophil elastase (Homo sapiens)
Sequence (whole entry): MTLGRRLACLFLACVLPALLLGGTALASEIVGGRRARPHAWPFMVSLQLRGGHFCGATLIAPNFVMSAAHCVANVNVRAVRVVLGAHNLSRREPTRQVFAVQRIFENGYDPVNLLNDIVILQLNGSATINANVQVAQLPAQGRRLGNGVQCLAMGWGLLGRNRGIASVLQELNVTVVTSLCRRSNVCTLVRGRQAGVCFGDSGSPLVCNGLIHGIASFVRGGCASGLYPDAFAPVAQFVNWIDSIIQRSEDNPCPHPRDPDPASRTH
measurementNotes: Inhibition of human neutrophil elastase assessed as cleavage of substrate N-methylsuccinyl-Ala-Ala-Pro-Val-7-amino-4-methyl-coumarin at 600 nM measured upto 120 mins by fluorescence microplate reader
The source made the active and inactive calls. No cut-off for these calls is given here.
measure: inhibition

# annotated cases, reported inhibition shown
>  <smilesRepresentation>
CC(C)OC(=O)c1nn(C(=O)c2ccccc2)c2ccccc12

>  <inhibition>
Active

$$$$
>  <smilesRepresentation>
COC(=O)c1nn(C(=O)c2ccccc2)c2ccccc12

>  <inhibition>
Active

$$$$
>  <smilesRepresentation>
COC(=O)c1nn(C(=O)c2cccc(C)c2)c2ccccc12

>  <inhibition>
Active

$$$$
>  <smilesRepresentation>
COC(=O)c1nn(C(=O)c2ccsc2)c2ccccc12

>  <inhibition>
Active

$$$$

Switching to the query record.
*Q* Specify measured inhibition for O=C(OCC(F)(F)F)c1nn(C(=O)c2ccccc2)c2ccccc12 .
*A* Active

----------
experimentalTarget: Prothrombin (Homo sapiens)
measurementNotes: Inhibition of human plasma thrombin benzoyl-Phe-Val-Arg-7-amino-4-methylcoumarin as substrate by spectrophotometric analysis
pIC50: −log10 of the molar value.
Please mark MET if the recorded pIC50 is equal to or greater than 5, and NOT MET if it falls below.

Solved entries (count: 3):
>  <smilesRepresentation>
COC(=O)c1nn(C(=O)c2cccc(C)c2)c2ccccc12

>  <category>
MET

$$$$
>  <smilesRepresentation>
O=C(OCC(F)(F)F)c1nn(C(=O)c2ccccc2)c2ccccc12

>  <category>
MET

$$$$
>  <smilesRepresentation>
CCCC(=O)n1nc(C(=O)OCC)c2ccccc21

>  <category>
MET

$$$$

// switching to the query molecule
*Q* Reported pIC50 at or above 5? COC(=O)c1nn(C(=O)c2ccccc2)c2ccccc12
*A* NOT MET

----------
experimentalTarget: Neutrophil elastase (Homo sapiens)
measurementNotes: Inhibition of human neutrophil elastase using N-methylsuccinyl-Ala-Ala-Pro-Val-7-amino-4-methyl-coumarin as substrate measured every 30 secs for 10 mins by fluorescence microplate reader
Listing of entries alongside the reported IC50.
Answer in nM, number only, no unit symbol.

# annotated cases, reported IC50 shown
>  <smilesRepresentation>
COC(=O)c1nn(C(=O)c2ccccc2)c2ccccc12

>  <unitOfMeasurement>
nM

>  <IC50>
89

$$$$
>  <smilesRepresentation>
O=C(OCC(F)(F)F)c1nn(C(=O)c2ccccc2)c2ccccc12

>  <unitOfMeasurement>
nM

>  <IC50>
260

$$$$
>  <smilesRepresentation>
COC(=O)c1nn(C(=O)c2cccc(C)c2)c2ccccc12

>  <unitOfMeasurement>
nM

>  <IC50>
130

$$$$
>  <smilesRepresentation>
CCCC(=O)n1nc(C(=O)OCC)c2ccccc21

>  <unitOfMeasurement>
nM

>  <IC50>
180

$$$$
>  <smilesRepresentation>
CC(C)OC(=O)c1nn(C(=O)c2ccccc2)c2ccccc12

>  <unitOfMeasurement>
nM

>  <IC50>
240

$$$$

*Q* Specify measured IC50 for COC(=O)c1nn(C(=O)c2ccsc2)c2ccccc12 .
*A* 310

These entries and their values trace back to ChEMBL document CHEMBL1806497.
